Details: in n-propanol, 313.15 K
PROPERTY LABEL: solubility (mole fraction)
Quick one: just the number, no unit, thanks!

Input: State the recorded solubility (mole fraction) for this entry: "CNC[C@H](O)c1cccc(O)c1.Cl"
Output: 0.0196

----------
Details: in 2-propoxyethanol, 298.15 K
PROPERTY LABEL: solubility (mole fraction)

Input: State the recorded solubility (mole fraction) for this entry: "CNC[C@H](O)c1cccc(O)c1.Cl"
Output: 0.0195

----------
Details: in DMF, 318.15 K
PROPERTY LABEL: solubility (mole fraction)
Quick one: just the number, no unit, thanks!

Input: State the recorded solubility (mole fraction) for this entry: "CNC[C@H](O)c1cccc(O)c1.Cl"
Output: 0.299

Origin of values: BigSolDB 2.1
